Field: microsomal CLint at 0.5 μM. Provide a value for each of the molecules that follow.
- Run description: Determination of the microsomal half-life, rat liver microsomes
- Cond: rat, liver microsomes, pH 7.4
Structures can show the parent of a compound that is named as a salt.

Sample records with microsomal CLint at 0.5 μM:
{"columns": ["Molecule", "microsomal CLint at 0.5 μM"],
 "data": [
  ["Cn1nccc1-c1ccnc2c1C(=O)N(CCc1ccc3ccccc3n1)C2 [Example 162, hydrochloride]", "< 100 µL/min/mg"],
  ["O=C1c2c(cccc2-c2cncnc2)CN1CCc1nc2ccccc2[nH]1 [Example 312, trifluoroacetate]", "< 100 µL/min/mg"]
]}

Attention now turns to another entry.
Task: Need microsomal CLint at 0.5 μM of `Cc1ccc(CCN2Cc3nccc(N4CCOCC4)c3C2=O)nc1` , thanks.
Result: < 100 µL/min/mg
